# Tested on: OVCAR-8 ovarian
# ASSAY_TEXT: NCI-60 one-dose screen, 48 h
# COND: 10 µM unless noted
Compounds without any hit were thinned out: in the full panel of roughly 83,000, 20% have a hit. Calls of active or inactive are those of the source. The calls were made as follows: active = growth percent below 10; inactive = the rest.
Write down one outcome, taken from 1 for active, -1 for inactive

{"columns": ["COMPOUND", "TARGET_OR_TEST_SYSTEM", "ASSIGNED_LABEL"],
 "data": [
  ["O[C@H]1CO[C@H]2[C@@H]1OC[C@@H]2Oc1ccc(Nc2ccnc(Nc3ccc(O[C@H]4CO[C@H]5[C@@H]4OC[C@@H]5O)c(Cl)c3)n2)cc1Cl", "OVCAR-8 ovarian", 1],
  ["CC(C)OC(=O)OCOP(=O)(OCOC(=O)OC(C)C)C1CCCN(O)C1=O (stereo not drawn)", "OVCAR-8 ovarian", 1],
  ["COC(=O)/C(=C\\c1ccc(OC)cc1)C(=O)N1c2ccccc2Sc2ccccc21", "OVCAR-8 ovarian", -1],
  ["C=C1C(=O)O[C@H]2[C@H]1CC/C(COC(=O)/C=C\\C(=O)NCc1ccc(Cn3c(=O)sn(-c4ccc(OC)cc4)c3=O)cc1)=C\\CC[C@@]1(C)O[C@@H]21", "OVCAR-8 ovarian", 1],
  ["Cc1cn(C2CCCCC2)c(=O)[nH]c1=O", "OVCAR-8 ovarian", -1]
]}

Input line: # outcome recorded in this test, key = `NC(=O)c1c(NC(=O)c2ccccn2)sc2c1CCC(=O)C2`
Output line: -1

Input line: Repeat with `CSc1ncc(C)c(Nc2ccc(Cl)cc2)n1`
Output line: -1

Input line: Likewise for CC1=NN(c2cccc(Cl)c2)C(=O)/C1=C\c1cn(CC(O)CN2CCCCC2)c2ccccc12 (stereo not drawn) ?
Output line: -1
